- Test system: transferrin receptor 1 (TFRC) mRNA
- assayOverview: TFRC gene expression by qRT-PCR in VCaP-EnzR cells
- Type: cell-based, human
- studyConditions: oligopeptide at 10 μM with […] μM ENZ
measuredMetric: TFRC Fold Change, Average

substance: REESDKPMY [FT-006]
measuredMetric: TFRC Fold Change, Average
result: 0.6

substance: REESGEP [FT-002, synthetic oligopeptide; -B / -E: tested with bicalutamide / enzalutamide]
measuredMetric: TFRC Fold Change, Average
result: 0.5

substance: LDEESGEP [FT-005, synthetic oligopeptide; -B / -E: tested with bicalutamide / enzalutamide]
measuredMetric: TFRC Fold Change, Average
result: 0.5

substance: REESGEL [FT-008]
measuredMetric: TFRC Fold Change, Average
result: 0.6
